- Test system: subgenomic HCV Replicon in HuH-7 cells
- Protocol text: Assay for inhibition of HCV RNA replication (replicon, in situ ribonuclease protection SPA)
- Assay type: cell-based, Hepatitis C Virus
- Experimental setup: HuH-7 hepatoma cells containing a subgenomic HCV Replicon; inhibition of HCV RNA replication; read-out: EC50
Here the recorded EC50 is given for each entry.
Measure: EC50 (µM)

compound=CCCC(CCC)c1noc([C@H](C)NP(=O)(O)OC[C@H]2O[C@@H](n3ccc(N)nc3=O)[C@](C)(O)[C@@H]2O)n1 display_unit=µM measured_number=5.4
compound="CCCC(CCC)COC(=O)C(C)NP(=O)(O)OC[C@H]1O[C@@H](n2ccc3c(N)ncnc32)[C@](C)(O)[C@@H]1O (some centres unmarked)" display_unit=µM measured_number=1.1
